target: N-terminal His-tagged human Src (Homo sapiens); construct: His (N); purchased Upstate USA Inc, 706 Forest Street, Charlottesville, Va; assay: Src kinase inhibition assay (33P-ATP filter assay); assay type: biochemical; conditions: 40 minutes at room temperature
In this section we review reported IC50 values for a set of compounds.

Solved cases below.
COMPOUND | TESTED_ON | RESULT
Cc1cc(Nc2cc(N(C)CCN(C)C)nc(-c3cccc(N(C)C)c3)n2)n[nH]1 [Compound 107] | N-terminal His-tagged human Src (Homo sapiens) | ≤ 0.1 µM
COc1cc(OC)cc(-c2nc(Nc3cc(C)[nH]n3)cc(N3CCN(C)CC3)n2)c1 [Example 191] | N-terminal His-tagged human Src (Homo sapiens) | ≤ 0.1 µM
COCCN(C)c1cc(Nc2cc(C)[nH]n2)nc(-c2ccc(N(C)C)cc2)n1 [Compound 118] | N-terminal His-tagged human Src (Homo sapiens) | ≤ 0.1 µM
Cc1cc(Nc2cc(N(C)CCN(C)C)nc(-c3ccc(C(C)(C)C)cc3)n2)n[nH]1 [Compound 103] | N-terminal His-tagged human Src (Homo sapiens) | ≤ 0.1 µM

Hello, please tell me recorded IC50 for this one: Cc1ccc(-c2nc(Nc3cc(C)[nH]n3)cc(N3CCN(C)CC3)n2)cc1 [Compound 38] ≤ 0.1 µM

Hello, please tell me recorded IC50 for this one: Cc1cc(Nc2cc(N3CCN(C)CC3)nc(-c3ccc(N(C)C)cc3)n2)n[nH]1 [Compound 85] ≤ 0.1 µM

Hello, please tell me recorded IC50 for this one: Cc1cc(Nc2cc(N3CCN(C)CC3)nc(-c3ccc(F)cc3F)n2)n[nH]1 [Example 172] ≤ 0.1 µM

Hello, please tell me recorded IC50 for this one: Cc1cc(Nc2cc(N3CCN(C)CC3)nc(-c3ccc([N+](=O)[O-])cc3)n2)n[nH]1 [Example 164] ≤ 0.1 µM

---

test system: HCT116 cells; assay: Whole cell cytotoxicity assay, Sulforhodamine B; type: cell-based; details: Homo sapiens, HCT-116; HCT116, 96 hours incubation, SRB; read-out: IC50 values in this assay (HCT116 cell growth)
pIC50: −log10 of the molar value.
VALUE_TYPE: pIC50

Hello, please tell me recorded pIC50 for this one: COCCN(C)c1cc(Nc2cc(C)[nH]n2)nc(-c2cccc3ccccc23)n1 5.00 to 6.00

---

biological target: recombinant Aurora A (Homo sapiens); construct: purchased Upstate, Lake Placid, N.Y; test: Aurora A (Aurora 2) inhibition assay, Z'-Lyte kinase assay; assay type: biochemical; settings: group with IC50 greater than 100 nM; ATP 10 μM, 1 h
Sequence (O14965 whole entry): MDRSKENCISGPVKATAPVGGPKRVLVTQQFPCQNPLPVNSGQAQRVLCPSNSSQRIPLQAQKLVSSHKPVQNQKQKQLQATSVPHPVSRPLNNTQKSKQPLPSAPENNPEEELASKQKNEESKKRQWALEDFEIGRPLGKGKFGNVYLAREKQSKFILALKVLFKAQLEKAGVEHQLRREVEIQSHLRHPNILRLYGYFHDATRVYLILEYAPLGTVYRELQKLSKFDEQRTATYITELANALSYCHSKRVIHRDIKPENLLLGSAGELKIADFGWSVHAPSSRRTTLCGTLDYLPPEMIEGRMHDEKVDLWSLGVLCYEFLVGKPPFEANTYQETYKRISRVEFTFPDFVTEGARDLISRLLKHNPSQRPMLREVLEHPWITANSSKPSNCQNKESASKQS
VALUE_TYPE: IC50

Hello, please tell me recorded IC50 for this one: Cc1cc(Nc2cc(N3CCN(C)CC3)nc(-c3cccc(C)c3C)n2)n[nH]1 [Example 179] ≤ 1000 nM

Hello, please tell me recorded IC50 for this one: Cc1cc(Nc2cc(N3CCN(C)CC3)nc(-c3ccco3)n2)n[nH]1 [Compound 14] ≤ 1000 nM

Hello, please tell me recorded IC50 for this one: Cc1cc(Nc2cc(N3CCN(C)CC3)nc(-c3ccccc3C(F)(F)F)n2)n[nH]1 [Compound 102] ≤ 1000 nM

---

In this section we review reported pIC50 values for a set of molecules.
Biological target: N-terminal His6-tagged recombinant human KDR, residues 790-end (Homo sapiens, UniProt P35968)
Construct: recombinant human KDR, residues 790-end; His6 (N); purchased Upstate USA Inc, 706 Forest Street, Charlottesville, Va
Sequence (P35968 790-1356 limits assumed): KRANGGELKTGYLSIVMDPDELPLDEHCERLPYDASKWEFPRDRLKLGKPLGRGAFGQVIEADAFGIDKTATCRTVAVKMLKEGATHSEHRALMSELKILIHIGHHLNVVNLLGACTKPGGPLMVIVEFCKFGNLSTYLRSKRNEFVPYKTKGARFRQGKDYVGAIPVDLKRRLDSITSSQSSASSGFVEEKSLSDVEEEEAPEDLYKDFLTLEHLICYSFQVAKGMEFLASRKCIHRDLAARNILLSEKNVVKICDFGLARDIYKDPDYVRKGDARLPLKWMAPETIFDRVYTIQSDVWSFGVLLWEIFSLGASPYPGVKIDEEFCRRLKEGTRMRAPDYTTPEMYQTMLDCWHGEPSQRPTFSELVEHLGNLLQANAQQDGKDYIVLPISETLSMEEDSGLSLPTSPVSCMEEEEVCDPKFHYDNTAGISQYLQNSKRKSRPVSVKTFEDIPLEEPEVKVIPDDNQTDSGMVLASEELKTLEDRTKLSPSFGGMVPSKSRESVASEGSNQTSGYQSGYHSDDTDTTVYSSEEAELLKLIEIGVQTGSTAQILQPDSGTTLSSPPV
Experiment: KDR kinase inhibition assay (33P-ATP filter assay)
Type: biochemical
Conditions: group with IC50 greater than 100 nM
Description: Compounds were assayed for KDR kinase inhibitory activity using N-terminal His6-tagged recombinant human KDR, residues 790-end (Upstate USA Inc, 706 Forest Street, Charlottesville, Va.). […] Inhibition of KDR activity was determined by comparison to assays that contained no inhibitor.
pIC50: −log10 of the molar value.

Solved cases below.
STRUCTURE_NOTATION | VALUE_TYPE | RESULT
Cc1cc(Nc2cc(N3CCN(C)CC3)nc(-c3ccc(F)cc3)n2)n[nH]1 | pIC50 | ≥ 6.00
Cc1cc(Nc2cc(NCCN3CCOCC3)nc(-c3cc4ccccc4n3C)n2)n[nH]1 | pIC50 | ≥ 6.00
COCCN(C)c1cc(Nc2cc(C)[nH]n2)nc(-c2ccc(N(C)C)cc2)n1 | pIC50 | ≥ 6.00

Let us examine a further case.
Hello, please tell me recorded pIC50 for this one: Cc1cc(Nc2cc(N3CCN(C)CC3)nc(-c3ccc(C(C)(C)C)cc3)n2)n[nH]1 ≥ 6.00

---

target: N-terminal GST-tagged recombinant human Flt3, residues 564-end (Homo sapiens, UniProt P36888); construct: recombinant human Flt3, residues 564-end; GST (N); purchased Upstate USA Inc, 706 Forest Street, Charlottesville, Va; assay: Flt3 kinase inhibition assay (33P-ATP filter assay); format: biochemical; settings: 40 minutes at room temperature
Sequence (P36888 564-993 limits assumed): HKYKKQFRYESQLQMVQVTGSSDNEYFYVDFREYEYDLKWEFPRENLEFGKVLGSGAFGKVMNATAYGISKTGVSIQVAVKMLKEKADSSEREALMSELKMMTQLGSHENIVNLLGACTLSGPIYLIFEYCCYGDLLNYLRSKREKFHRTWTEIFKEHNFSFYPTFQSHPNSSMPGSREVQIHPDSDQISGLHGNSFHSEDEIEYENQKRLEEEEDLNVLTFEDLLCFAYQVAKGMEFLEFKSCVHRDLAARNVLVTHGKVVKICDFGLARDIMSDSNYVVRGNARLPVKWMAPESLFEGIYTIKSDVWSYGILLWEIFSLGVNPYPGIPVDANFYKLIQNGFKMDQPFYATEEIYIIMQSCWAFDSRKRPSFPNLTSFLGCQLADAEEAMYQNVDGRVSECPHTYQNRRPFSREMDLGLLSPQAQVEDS
pIC50: −log10 of the molar value.
VALUE_TYPE: pIC50

Solved cases below.
STRUCTURE_NOTATION | RESULT
Cc1cccc(-c2nc(Nc3cc(C)[nH]n3)cc(N(C)CCN(C)C)n2)c1 | ≥ 7.00
Cc1cc(Nc2cc(N3CCN(C)CC3)nc(-c3cc(F)cc(Cl)c3)n2)n[nH]1 | ≥ 7.00
COCCN(C)c1cc(Nc2cc(C)[nH]n2)nc(-c2ccccc2Cl)n1 | ≥ 7.00
COCCN(C)c1cc(Nc2cc(C)[nH]n2)nc(-c2ccc3c(c2)OCO3)n1 | ≥ 7.00
Cc1cc(Nc2cc(N(C)CCN(C)C)nc(-c3cccc(Cl)c3)n2)n[nH]1 | ≥ 7.00
Cc1cc(Nc2cc(N3CCN(C)CC3)nc(-c3cc(F)ccc3C)n2)n[nH]1 | ≥ 7.00
Cc1cc(Nc2cc(NC3CCOCC3)nc(-c3ccc4c(c3)OCO4)n2)n[nH]1 | ≥ 7.00

Let us examine a further case.
Hello, please tell me recorded pIC50 for this one: Cc1cc(Nc2cc(N(C)CCN(C)C)nc(-c3cccc4ccccc34)n2)n[nH]1 ≥ 7.00

---

In this section we review reported pIC50 values for a set of compounds.
Biological target: N-terminal His-tagged human Src (Homo sapiens, UniProt P12931)
Construct: His (N); purchased Upstate USA Inc, 706 Forest Street, Charlottesville, Va
Sequence (P12931 whole entry): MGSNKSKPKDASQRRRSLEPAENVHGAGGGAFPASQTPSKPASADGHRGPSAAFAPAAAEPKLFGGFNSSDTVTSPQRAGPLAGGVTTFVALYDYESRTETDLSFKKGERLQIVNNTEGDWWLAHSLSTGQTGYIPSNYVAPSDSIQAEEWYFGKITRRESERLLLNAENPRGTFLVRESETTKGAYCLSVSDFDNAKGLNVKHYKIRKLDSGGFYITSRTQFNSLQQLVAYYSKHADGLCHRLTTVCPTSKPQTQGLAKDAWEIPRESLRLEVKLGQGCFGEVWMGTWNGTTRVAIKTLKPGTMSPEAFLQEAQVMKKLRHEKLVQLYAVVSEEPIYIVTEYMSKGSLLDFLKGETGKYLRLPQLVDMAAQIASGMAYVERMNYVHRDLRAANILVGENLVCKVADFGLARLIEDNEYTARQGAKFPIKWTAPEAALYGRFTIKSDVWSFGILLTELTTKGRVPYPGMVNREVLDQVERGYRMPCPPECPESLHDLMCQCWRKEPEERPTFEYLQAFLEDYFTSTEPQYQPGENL
Assay: Src kinase inhibition assay (33P-ATP filter assay)
Format: biochemical
Settings: 40 minutes at room temperature
Procedure: Compounds were assayed for Src kinase inhibitory activity using N-terminal His-tagged human Src (Upstate USA Inc, 706 Forest Street, Charlottesville, Va.). […] Inhibition of Src activity was determined by comparison to assays that contained no inhibitor.
pIC50: −log10 of the molar value.

Solved cases below.
STRUCTURE_NOTATION | pIC50
Cc1cccc(-c2nc(Nc3cc(C)[nH]n3)cc(N3CCN(C)CC3)n2)c1 | ≥ 7.00
Cc1cc(Nc2cc(NC3CCOCC3)nc(-c3cccc(N(C)C)c3)n2)n[nH]1 | ≥ 7.00
Cc1cc(Nc2cc(N3CCN(C)CC3)nc(-c3cccc(N(C)C)c3)n2)n[nH]1 | ≥ 7.00
Cc1cc(Nc2cc(N3CCN(C)CC3)nc(-c3cc4cc(NS(=O)(=O)C5CC5)ccc4o3)n2)n[nH]1 | ≥ 7.00
Cc1cc(Nc2cc(N3CCN(C)CC3)nc(-c3cccc(Cl)c3)n2)n[nH]1 | ≥ 7.00

Hello, please tell me recorded pIC50 for this one: Cc1cc(Nc2cc(N3CCN(C)CC3)nc(-c3ccc4ccccc4c3)n2)n[nH]1 ≥ 7.00
